Data provenance: PubChem BioAssay (NCI)

- System: LOX IMVI melanoma
- PROTOCOL TEXT: NCI tumour cell line growth inhibition, 48 h
Provide the reported TGI of each item.

// TGI lookup, key: O=C(/C=C/c1c(-c2ccccc2)[nH]c2ccccc12)S(=O)(=O)c1ccccc1
> 100 µM

// TGI lookup, key: [N-]=[N+]=CC(=O)OC1CCOCC1
> 100 µM

// TGI lookup, key: COc1cccc(-c2nc(-c3cnccn3)n(C3OC(CO)C(O)C3O)n2)c1 (stereo unspecified)
> 100 µM

// TGI lookup, key: C=CCN1C(=O)CNC1=S
> 100 µM

// TGI lookup, key: CCN(Cc1cc(F)cc(F)c1)c1ccc(CO)c(Cl)c1
28.2 µM

// TGI lookup, key: O=C1c2ccc3c4ccc5c6c(ccc(c7ccc(c2c37)C(=O)N1CCN1CCCCC1)c64)C(=O)N(CCN1CCCCC1)C5=O
> 100 µM

// TGI lookup, key: CN(C)/C=N/S(=O)(=O)c1nn2c(C=O)c(-c3ccccc3)nc2s1
> 89 µM

// TGI lookup, key: NC(CCCCO)C(=O)O (stereo unspecified)
> 100 µM

// TGI lookup, key: COc1cc(C(=O)/C=C/c2c(-c3cccs3)nc3sccn23)cc(OC)c1OC
2.5 µM

// TGI lookup, key: CCCCN1C=CCN(CCCC)C1
> 100 µM

// TGI lookup, key: COc1cccc(-c2nnc3c(-c4ccccc4)nc4ccccc4n23)c1
> 100 µM

---

Provide the reported TGI of each item.
- Test system: U251 CNS
- PROTOCOL TEXT: NCI tumour cell line growth inhibition, 48 h

// TGI lookup, key: Cc1cc(C)nc(NS(=O)(=O)c2ccc(NC(=O)c3cccc4c(Nc5ccc(S(=O)(=O)N=C(N)N)cc5)c5ccccc5nc34)cc2)n1
> 100 µM

// TGI lookup, key: Cc1cccc(/C=N/NC(=S)Nc2ccc(Cl)cc2)n1
13.5 µM

// TGI lookup, key: CCOC(=O)CCC(C(=O)OCC)n1nc2ccc(Nc3c(C)[n+]([O-])c4ccc(Cl)cc4[n+]3[O-])cc2n1 (stereo not given)
39.1 µM

// TGI lookup, key: C=CCOC1=C(OC(C)=O)C(=O)OC1C1COC(C)(C)O1 (stereo not given)
> 100 µM

// TGI lookup, key: COc1cc(Nc2ncc3c(C)nc(-c4cccc(C(F)(F)F)c4)n3n2)cc(OC)c1OC
7.06 µM

// TGI lookup, key: CC1=C(C)C(=O)C(C2=C(C3=CC(=O)C(C)=C(C)C3=O)C(=O)C(C)=C(C)C2=O)=CC1=O
> 38.2 µM

// TGI lookup, key: C=CCN1C(=O)CNC1=S
> 100 µM

// TGI lookup, key: C=C1C(O)C2C(=C(CC(C)C)C13CC3)C(=O)C(C)(C)C2O (stereo not given)
> 100 µM

// TGI lookup, key: Nc1ccc(Sc2nnc(N)s2)cc1
> 100 µM

// TGI lookup, key: O=c1c(-c2ccccc2)c(SCCN2CCCC2)n(-c2ccccc2)c(=S)n1-c1ccccc1
> 100 µM

---

- Test system: SNB-19 CNS
- PROTOCOL TEXT: NCI tumour cell line growth inhibition, 48 h
ENDPOINT: TGI

// TGI lookup, key: COc1ccc(P2(=S)OCCOP(=S)(c3ccc(OC)cc3)S2)cc1 (stereo not drawn)
> 100 µM

// TGI lookup, key: CCCCCCCCCCCC(=O)N(CCCCCCCCCCC(=O)O)CC(O)C(O)C(OC1OC(CO)C(O)C(O)C1O)C(O)CO (stereo not drawn)
> 100 µM

// TGI lookup, key: Cc1cccc(C)c1NC(=O)CCC(=O)NNc1nnc(C)n1N
> 100 µM

// TGI lookup, key: CCOC(=O)/C=C1/Oc2ccccc2C1(C)O (stereo not drawn)
> 100 µM

// TGI lookup, key: Clc1ccc(-c2nc3ccc(Cl)cc3[nH]2)cc1
> 100 µM

// TGI lookup, key: Cn1c(C2CCCc3c2c2ccccc2n3C)cc2ccccc21 (stereo not drawn)
> 318 µM

// TGI lookup, key: O=[N+]([O-])c1cc([N+](=O)[O-])c(NN=C(c2ccc(O)cc2)c2ccc(O)cc2)cc1Cl
2.3 µM

// TGI lookup, key: COc1cc(C(=O)/C=C/c2c(-c3cccs3)nc3sccn23)cc(OC)c1OC
13.5 µM

---

Provide the reported TGI of each item.
- System: OVCAR-4 ovarian
- PROTOCOL TEXT: NCI tumour cell line growth inhibition, 48 h

// TGI lookup, key: COc1cc(C(=O)Nc2cccc3ccccc23)c(Br)c(OC)c1OC
> 100 µM

// TGI lookup, key: COc1cc2c(c(OC)c1OC)CCNC2C1=C(O)COC1=O (configuration not stated)
> 100 µM

// TGI lookup, key: COc1cc(C(=O)/C=C/c2c(-c3cccs3)nc3sccn23)cc(OC)c1OC
53.2 µM

// TGI lookup, key: CCC(=O)Nc1cccc(NC(=O)c2c(Cl)c(Cl)c(Cl)c(Cl)c2-c2nc3ccccc3[nH]2)c1
> 100 µM

// TGI lookup, key: Cc1ccc(O)c(-c2cc(-c3cccc(Br)c3)c(C#N)c(N)n2)c1
22.5 µM

// TGI lookup, key: COc1cc(/C=C/c2cc(/C=C/c3ccc(O)c(OC)c3)n(C(=O)Cc3ccccc3)n2)ccc1O
6.39 µM

// TGI lookup, key: FC(F)(F)c1cccc(C=NC23CC4CC(CC(C4)C2)C3)c1
> 100 µM

// TGI lookup, key: COc1ccc2nccc(/C=C/c3ccc(N(C)C)cc3)c2c1
> 10 µM

// TGI lookup, key: Cn1c([N+](=O)[O-])cnc1/C=C1\Oc2ccc(Br)cc2C1=O
> 20.2 µM

// TGI lookup, key: OCN(CO)c1ccc2c(c1)Cc1cc(F)ccc1-2
45.7 µM

// TGI lookup, key: C#CCCOC(=O)CC1=C(C)/C(=C/c2ccc(S(C)=O)cc2)c2ccc(F)cc21 (configuration not stated)
43 µM

// TGI lookup, key: COc1cc2c(cc1OCCCCCN1C(=O)c3cccc4cccc(c34)C1=O)N=C[C@@H]1CCCN1C2=O
> 100 µM

// TGI lookup, key: C=CC(O)(CBr)CCC(Br)C(C)(C)Cl (configuration not stated)
> 10 µM

// TGI lookup, key: C=CCN1C(=O)CNC1=S
> 100 µM

// TGI lookup, key: CCN(Cc1cc(F)cc(F)c1)c1ccc(CO)c(Cl)c1
2.73 µM

// TGI lookup, key: COc1cccc(-c2nc(-c3cnccn3)n(C3OC(CO)C(O)C3O)n2)c1 (configuration not stated)
> 100 µM

// TGI lookup, key: CN1C(=O)C(/C=N/NC(=O)c2cccnc2)C(N)N(C)C1=O (configuration not stated)
> 100 µM

// TGI lookup, key: [N-]=[N+]=CC(=O)OC1CCOCC1
> 100 µM

// TGI lookup, key: CCCCCCCCCCCCC(=O)CCCCC(=O)O
> 100 µM

// TGI lookup, key: CCOC(=O)CCC(C(=O)OCC)n1nc2ccc(Nc3c(C)[n+]([O-])c4ccc(Cl)cc4[n+]3[O-])cc2n1 (configuration not stated)
> 100 µM

// TGI lookup, key: COc1ccc(Cc2nccc3cc(OC)c(OC)cc23)cc1
> 100 µM

// TGI lookup, key: O=C(O)[C@@H](NS(=O)(=O)c1ccc(F)cc1)c1ccccc1
> 100 µM

---

- Test system: CAKI-1 renal
- PROTOCOL TEXT: NCI tumour cell line growth inhibition, 48 h
Provide the reported TGI of each item.

// TGI lookup, key: COc1cc2c(Oc3ccc4[nH]c(C)cc4c3F)ncnc2cc1OCCCN1CCCC1
13.9 µM

// TGI lookup, key: Cc1ccccc1NC(=O)C(=O)C1CN(c2ccccc2)N=C1N (stereo unspecified)
> 100 µM

// TGI lookup, key: COc1ccc(P2(=S)OCCOP(=S)(c3ccc(OC)cc3)S2)cc1 (stereo unspecified)
> 100 µM

// TGI lookup, key: CC1COC(c2cn[nH]c2C(N)=O)C1O (stereo unspecified)
> 100 µM

// TGI lookup, key: CCOc1cc(NC(C)=O)ccc1C(=O)NNS(=O)(=O)c1ccc(Cl)cc1Cl
> 50 µM

// TGI lookup, key: CC[C@@]1(O)C(=O)OCc2c1cc1n(c2=O)Cc2c-1nc1ccccc1c2/C=N/NC(=O)C[N+](C)(C)C
> 100 µM

---

- System: CCRF-CEM leukemia
- PROTOCOL TEXT: NCI tumour cell line growth inhibition, 48 h
ENDPOINT: TGI

// TGI lookup, key: COC(=O)/C(C#N)=C1\CCC(OC)N1 (stereo unspecified)
> 100 µM

// TGI lookup, key: CCCCCCCCCCCCC(=O)CCCCC(=O)O
> 100 µM

// TGI lookup, key: CC(=O)c1ccc(Nc2cc(-n3nnc4ccccc43)nc3ccccc23)cc1
> 100 µM

// TGI lookup, key: CCCOc1ccc2sc(NC(=O)c3cc([N+](=O)[O-])cc([N+](=O)[O-])c3)nc2c1
> 100 µM

// TGI lookup, key: COc1ccc2nccc(/C=C/c3ccc(N(C)C)cc3)c2c1
> 10 µM

// TGI lookup, key: Cc1cc(C)nc(NS(=O)(=O)c2ccc(NC(=O)c3cccc4c(Nc5ccc(S(=O)(=O)N=C(N)N)cc5)c5ccccc5nc34)cc2)n1
> 100 µM

// TGI lookup, key: COc1cc(/C=C/c2cc(/C=C/c3ccc(O)c(OC)c3)n(C(=O)Cc3ccccc3)n2)ccc1O
> 100 µM

// TGI lookup, key: COc1cc(Nc2cc(O)c3c(=O)cc(-c4ccccc4)oc3c2)cc(OC)c1
> 100 µM

// TGI lookup, key: CC1(C)OC(C(C)(C)O)C(C(C)(C)O)O1 (stereo unspecified)
> 100 µM

// TGI lookup, key: CCOC(=O)NC(NCC(O)c1ccccc1)(C(F)(F)F)C(F)(F)F (stereo unspecified)
> 100 µM

// TGI lookup, key: COc1ccccc1/C=C/C(=O)c1ccc(Nc2nc(Nc3ccc(F)cc3)nc(Nc3ccc(F)cc3)n2)cc1
> 100 µM
